B1: POU domain, class 2, transcription factor 2, residues 200 to 269; numbered along this chain, P09086 (parent)
chain: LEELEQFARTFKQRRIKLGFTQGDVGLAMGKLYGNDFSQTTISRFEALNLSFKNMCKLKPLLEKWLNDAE

- Variants of: B1
- TEST METHOD NOTES: abundance fitness (aPCA) (normalised: wild type 0, dead -1); higher = more abundant; growth selection in yeast, the domain comes from the species named
- EXPERIMENTAL CONDITIONS: Homo sapiens
Binary classification by abundance fitness, with -0.2 as an inclusive lower bound for Yes; all other cases are No.

Hi team, for `D68K` , is the recorded abundance fitness at or above -0.2?
Yes

Hi team, for `A28N` , is the recorded abundance fitness at or above -0.2?
Yes

Hi team, for `E3C` , is the recorded abundance fitness at or above -0.2?
Yes

Hi team, for `R15C` , is the recorded abundance fitness at or above -0.2?
No

Hi team, for `R15I` , is the recorded abundance fitness at or above -0.2?
No

Hi team, for `S38R` , is the recorded abundance fitness at or above -0.2?
Yes

Hi team, for `N35Q` , is the recorded abundance fitness at or above -0.2?
Yes

Reference for the values: the Human Domainome abundance scans (Beltran et al. 2025)
